Test System: AOC3 (Homo sapiens, UniProt Q16853)
Construct: expressed in transfected cells; host or cells: CHO cells
Sequence (Q16853 whole entry): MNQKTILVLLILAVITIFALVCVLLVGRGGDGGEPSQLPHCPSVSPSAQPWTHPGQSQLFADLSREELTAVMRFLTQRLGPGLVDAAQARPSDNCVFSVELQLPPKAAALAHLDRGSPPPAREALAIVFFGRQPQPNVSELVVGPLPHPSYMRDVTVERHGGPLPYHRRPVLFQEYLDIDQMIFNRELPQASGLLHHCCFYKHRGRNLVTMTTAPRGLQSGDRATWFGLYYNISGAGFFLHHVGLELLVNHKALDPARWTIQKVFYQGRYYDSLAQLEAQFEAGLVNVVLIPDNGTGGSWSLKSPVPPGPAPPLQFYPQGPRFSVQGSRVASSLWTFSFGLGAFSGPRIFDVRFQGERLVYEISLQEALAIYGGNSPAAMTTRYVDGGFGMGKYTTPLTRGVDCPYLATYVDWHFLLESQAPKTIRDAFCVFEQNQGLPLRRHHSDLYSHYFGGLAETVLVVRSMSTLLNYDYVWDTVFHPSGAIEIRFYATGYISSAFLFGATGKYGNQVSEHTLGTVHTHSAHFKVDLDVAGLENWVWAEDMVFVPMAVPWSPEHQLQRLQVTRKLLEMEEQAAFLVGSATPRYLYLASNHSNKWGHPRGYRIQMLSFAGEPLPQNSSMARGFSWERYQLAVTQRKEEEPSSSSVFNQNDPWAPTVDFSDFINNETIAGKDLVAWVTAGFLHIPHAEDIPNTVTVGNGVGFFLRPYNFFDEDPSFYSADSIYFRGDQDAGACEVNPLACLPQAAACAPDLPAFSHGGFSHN
Assay Text: AOC3 biochemical assay (MAO-Glo)
Assay Setup: Table 2, comparison with compounds of EP 2 695 881; read-out: IC50 AOC3
Entries and their IC50 values follow.
Readout Label: IC50

1) N=C(N)NC(=O)OCc1cccc(-c2cnc(OCC3CCN(C(=O)C4CC4)CC3)nc2)c1F [Ex. 74, p. 229, reference compound] :: 1 nM
2) COCCOc1ncc(-c2cccc(COC(=O)NC(=N)N)c2F)cn1 [Ex. 197, p. 243, reference compound] :: 6 nM
3) CCOc1ncc(-c2cccc(COC(=O)NC(=N)N)c2F)cn1 [Ex. 136, p. 235, reference compound] :: 6 nM
4) N=C(N)NC(=O)OCc1cccc(-c2cnc(N3CCOCC3)nc2)c1F [Ex. 81, p. 229, reference compound] :: 1 nM
5) COC1CN(c2ncc(-c3cccc(COC(=O)NC(=N)N)c3F)cn2)C1 [Ex. 63, p. 227, reference compound] :: 1 nM
6) CC(=O)N1CCC(COc2ncc(-c3cccc(COC(=O)NC(=N)N)c3F)cn2)CC1 [Ex. 11, p. 221, reference compound] :: 1 nM
